B1: library; numbered along this chain (parent)
chain: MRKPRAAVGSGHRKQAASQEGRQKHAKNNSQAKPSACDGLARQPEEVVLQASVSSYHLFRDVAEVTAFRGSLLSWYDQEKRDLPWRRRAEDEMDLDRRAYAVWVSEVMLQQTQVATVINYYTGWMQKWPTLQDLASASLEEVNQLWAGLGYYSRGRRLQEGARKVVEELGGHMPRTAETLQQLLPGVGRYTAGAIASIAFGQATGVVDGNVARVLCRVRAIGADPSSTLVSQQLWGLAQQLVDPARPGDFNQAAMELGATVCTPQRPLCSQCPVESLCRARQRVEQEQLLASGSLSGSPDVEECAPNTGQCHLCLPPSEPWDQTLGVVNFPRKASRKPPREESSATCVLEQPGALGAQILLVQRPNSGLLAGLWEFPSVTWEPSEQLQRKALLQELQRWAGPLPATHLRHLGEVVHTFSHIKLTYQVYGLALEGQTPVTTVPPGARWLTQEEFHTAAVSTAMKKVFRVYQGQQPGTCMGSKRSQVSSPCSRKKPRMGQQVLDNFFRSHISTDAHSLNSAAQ

Variants of: B1
TEST_DESCRIPTION: 8OG:A repair function score (normalized; synonymous = 0, nonsense = -1) (normalized log-likelihood score); higher = more repair activity (WT-like);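 also: cells sorted at 72 h after reporter transfection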
TEST_PARAMETERS: with 8OG:A DNA repair reporter (GFP) in HEK-293 MUTYH KO cells
QUANTITY_NAME: 8OG:A repair function score

1. F200S : -0.54
2. A137Q : -0.0812
3. G368M : -0.799
4. D61N : -0.0108
5. F376E : -1.28
6. C269D : -0.992
7. L109Y : -1.24
8. H57V : -0.613
9. T440N : -0.313
10. G193N : 0.0644
11. D502M : -0.0464
12. C304F : -0.29
13. T204C : 0.0932
14. A212S : -0.131
15. G236R : 0.107
16. E64P : -0.284
17. L149D : -1.19
18. D512Q : -0.02
19. L73E : -0.46
20. Q498I : 0.0195
21. L73Y : -2.08
22. S378L : -0.171
